- measured.on: T1, human LAG-3 on cells (HEK293-hLAG-3 stable cell line) (human, UniProt P18627 23-525)
- T1 sequence: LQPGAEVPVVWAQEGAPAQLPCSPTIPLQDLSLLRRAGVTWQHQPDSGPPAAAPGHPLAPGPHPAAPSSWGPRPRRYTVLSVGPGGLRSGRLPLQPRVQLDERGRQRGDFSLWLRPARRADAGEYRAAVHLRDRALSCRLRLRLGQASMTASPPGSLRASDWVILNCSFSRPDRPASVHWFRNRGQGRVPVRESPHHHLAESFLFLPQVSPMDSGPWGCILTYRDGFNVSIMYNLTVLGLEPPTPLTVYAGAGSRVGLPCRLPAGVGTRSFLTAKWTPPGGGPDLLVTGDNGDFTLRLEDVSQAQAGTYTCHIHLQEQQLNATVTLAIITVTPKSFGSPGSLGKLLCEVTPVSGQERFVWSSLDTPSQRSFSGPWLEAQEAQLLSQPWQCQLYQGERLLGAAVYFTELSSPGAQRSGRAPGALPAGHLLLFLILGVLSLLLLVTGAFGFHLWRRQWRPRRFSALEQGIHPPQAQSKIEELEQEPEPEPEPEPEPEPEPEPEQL
- assay.info: cell-based or functional assay
Listing of recorded IL-2 production, antigen-specific T lymphocyte stimulation test, 10 ug/ml, N = 1 by entry.
Expressed in pg/mL, but write only the number.

Use the examples below as a reference point.
# lookup: IL-2 production, antigen-specific T lymphocyte stimulation test, 10 ug/ml, N = 1 of 409B11E12 mouse-human chimeric antibody (antibody, V domains shown, also called mAb104-409B11E12) VH: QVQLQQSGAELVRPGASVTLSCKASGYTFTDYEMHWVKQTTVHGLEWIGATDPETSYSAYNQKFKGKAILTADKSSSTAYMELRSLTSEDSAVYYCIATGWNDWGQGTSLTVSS VL: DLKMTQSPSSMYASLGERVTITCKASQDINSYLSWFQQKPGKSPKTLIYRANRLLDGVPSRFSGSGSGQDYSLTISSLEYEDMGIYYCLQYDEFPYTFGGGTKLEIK
671

Query: IL-2 production, antigen-specific T lymphocyte stimulation test, 10 ug/ml, N = 1; subject: 405B8H3 mouse-human chimeric antibody (antibody, V domains shown, also called mAb103-405B8H3) VH: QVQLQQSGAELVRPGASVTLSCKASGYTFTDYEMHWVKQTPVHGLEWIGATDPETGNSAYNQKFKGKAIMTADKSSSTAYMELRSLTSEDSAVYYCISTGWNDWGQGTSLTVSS VL: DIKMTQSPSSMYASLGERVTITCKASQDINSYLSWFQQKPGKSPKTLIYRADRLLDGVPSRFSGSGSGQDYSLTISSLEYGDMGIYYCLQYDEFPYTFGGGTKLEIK
770

Would you kindly look at the next entry?
Fill in: IL-2 production, antigen-specific T lymphocyte stimulation test, 10 ug/ml, N = 1 of 409D4E10 mouse-human chimeric antibody (antibody, V domains shown, also called mAb112-409D4E10) VH: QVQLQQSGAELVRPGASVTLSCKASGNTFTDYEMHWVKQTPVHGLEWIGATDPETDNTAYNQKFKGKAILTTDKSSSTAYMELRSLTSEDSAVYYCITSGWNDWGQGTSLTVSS VL: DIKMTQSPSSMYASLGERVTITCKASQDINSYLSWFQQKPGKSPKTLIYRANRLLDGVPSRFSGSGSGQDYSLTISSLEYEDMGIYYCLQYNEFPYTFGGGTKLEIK is ___
890

src = patent US20210155689A1
